Assay: Brain concentration and brain/plasma ratio in mouse after 10 mg/kg p.o.
Format: in vivo
Conditions: plasma, po, 10 mg/kg, PO 10 mg/kg, 2.00 h, mean, read-out: Plasma Concentration, Mean PO
READOUT TYPE: concentration at 2 h (ng/mL)

CCN1CCN(Cc2ccc(Nc3ncc(F)c(-c4cc(F)c5nc(C)n(C(C)C)c5c4)n3)nc2)CC1 [abemaciclib, reference compound]; 836
CCN1CCN(Cc2ccc(Nc3ncc(F)c(-c4ccc5nn(C)c(C(C)C)c5c4)n3)nc2)CC1; 694

====

Assay: Brain concentration and brain/plasma ratio in mouse after 10 mg/kg p.o.
Assay type: in vivo
Details: brain, po, 10 mg/kg, PO 10 mg/kg, 2.00 h, individual animal R2, read-out: Brain Concentration, R2 + 3n
READOUT TYPE: concentration at 2 h (ng/g)

I = CCN1CCN(Cc2ccc(Nc3ncc(F)c(-c4cc(F)c5nc(C)n(C(C)C)c5c4)n3)nc2)CC1 [abemaciclib, reference compound]
II = CCN1CCN(Cc2ccc(Nc3ncc(F)c(-c4ccc5nn(C)c(C(C)C)c5c4)n3)nc2)CC1
Q) Of the two listed items, which has the higher concentration at 2 h? First: I Second: II Identify your selection by its label.
A) II

====

Biological target: P-gp (Homo sapiens, UniProt P08183)
Construct: expressed in transfected cells; host or cells: MDR1-MDCK (MDCK cells expressing MDR1)
Sequence (P08183 whole entry): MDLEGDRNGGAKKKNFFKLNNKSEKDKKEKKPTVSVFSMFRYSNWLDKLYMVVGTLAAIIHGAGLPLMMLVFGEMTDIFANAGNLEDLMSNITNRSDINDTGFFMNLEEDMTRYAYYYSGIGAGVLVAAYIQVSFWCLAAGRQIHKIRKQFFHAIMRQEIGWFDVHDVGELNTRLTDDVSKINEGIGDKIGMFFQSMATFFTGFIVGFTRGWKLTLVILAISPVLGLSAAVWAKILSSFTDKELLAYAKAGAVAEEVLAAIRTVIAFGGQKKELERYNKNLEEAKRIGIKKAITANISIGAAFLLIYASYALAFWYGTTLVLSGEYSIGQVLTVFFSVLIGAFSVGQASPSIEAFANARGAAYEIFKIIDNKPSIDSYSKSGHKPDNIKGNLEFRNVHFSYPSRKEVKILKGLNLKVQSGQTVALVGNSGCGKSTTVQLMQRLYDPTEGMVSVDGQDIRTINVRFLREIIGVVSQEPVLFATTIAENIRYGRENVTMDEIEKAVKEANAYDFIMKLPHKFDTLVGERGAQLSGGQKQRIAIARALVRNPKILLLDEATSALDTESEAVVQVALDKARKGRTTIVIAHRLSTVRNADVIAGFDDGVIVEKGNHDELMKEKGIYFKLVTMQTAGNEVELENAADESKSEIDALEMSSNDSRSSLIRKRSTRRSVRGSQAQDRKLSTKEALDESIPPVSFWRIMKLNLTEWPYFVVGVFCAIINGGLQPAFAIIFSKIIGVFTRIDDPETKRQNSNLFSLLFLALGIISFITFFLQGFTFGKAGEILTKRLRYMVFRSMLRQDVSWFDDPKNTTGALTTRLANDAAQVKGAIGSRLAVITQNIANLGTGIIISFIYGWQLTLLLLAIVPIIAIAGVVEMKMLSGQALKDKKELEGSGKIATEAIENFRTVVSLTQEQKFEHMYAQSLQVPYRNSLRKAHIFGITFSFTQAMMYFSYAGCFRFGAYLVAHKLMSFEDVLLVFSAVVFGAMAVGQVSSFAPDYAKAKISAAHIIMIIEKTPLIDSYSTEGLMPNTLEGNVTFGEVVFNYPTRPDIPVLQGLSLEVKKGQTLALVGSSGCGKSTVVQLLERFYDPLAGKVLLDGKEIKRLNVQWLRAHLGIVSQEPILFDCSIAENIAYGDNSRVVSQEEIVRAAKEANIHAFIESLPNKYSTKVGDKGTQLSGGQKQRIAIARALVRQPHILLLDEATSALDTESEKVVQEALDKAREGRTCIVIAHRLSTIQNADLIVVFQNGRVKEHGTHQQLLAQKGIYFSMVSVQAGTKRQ
Experiment: P-gp substrate potential using MDR1-MDCK monolayers (bidirectional permeability +/- valspodar)
Type: in vitro ADME
Settings: dog, MDCK-MDR1, pH 7.4, MDR1-MDCK, 5 μM, A-to-B, without valspodar, replicate R1; read-out: Papp R1
READOUT TYPE: Papp A→B at 120 min, 5 μM (×10⁻⁶ cm/s)
Express it in ×10⁻⁶ cm/s; write the number only.

Q) Papp A→B at 120 min, 5 μM for `CCN1CCN(Cc2ccc(Nc3ncc(F)c(-c4ccc5nn(C)c(C(C)C)c5c4)n3)nc2)CC1` ?
A) 5.25

====

Assay: Brain concentration and brain/plasma ratio in mouse after 10 mg/kg p.o.
Type: in vivo
Conditions: PO 10 mg/kg, plasma, from mean concentrations, read-out: Plasma AUC0-last
READOUT TYPE: AUC(0-t) (ng·h/mL)

CCN1CCN(Cc2ccc(Nc3ncc(F)c(-c4ccc5nn(C)c(C(C)C)c5c4)n3)nc2)CC1 [Compound 1]; 8380
CCN1CCN(Cc2ccc(Nc3ncc(F)c(-c4cc(F)c5nc(C)n(C(C)C)c5c4)n3)nc2)CC1 [abemaciclib, reference compound]; 9450

====

System: MDR1 (P-gp)
Experiment: in vitro
Conditions: dog, MDCK-MDR1
READOUT TYPE: Papp A→B (×10⁻⁶ cm/s)
Field format: number, assumed ×10⁻⁶ cm/s, no unit text.

Q) // lookup Papp A→B | system=MDR1 (P-gp) | key= C[C@H]1O[C@@H](O[C@H]2[C@@H](O)C[C@H](O[C@H]3[C@@H](O)C[C@H](O[C@H]4CC[C@@]5(C)[C@H](CC[C@@H]6[C@@H]5C[C@@H](O)[C@]5(C)[C@@H](C7=CC(=O)OC7)CC[C@]65O)C4)O[C@@H]3C)O[C@@H]2C)C[C@H](O)[C@@H]1O [Digoxin]
A) 0.05

====

Test: Brain concentration and brain/plasma ratio in mouse after 10 mg/kg p.o.
Assay type: in vivo
Conditions: brain, po, 10 mg/kg, PO 10 mg/kg, 8.00 h, individual animal R2, read-out: Brain Concentration, R2 + 3n
READOUT TYPE: concentration at 8 h (ng/g)

a = CCN1CCN(Cc2ccc(Nc3ncc(F)c(-c4ccc5nn(C)c(C(C)C)c5c4)n3)nc2)CC1
b = CCN1CCN(Cc2ccc(Nc3ncc(F)c(-c4cc(F)c5nc(C)n(C(C)C)c5c4)n3)nc2)CC1 [abemaciclib, reference compound]
Q) Field: lower concentration at 8 h | Options: a / b Record your answer as the label of the chosen record.
A) b
(b: 277 ng/g, a: 1380 ng/g)

====

Target: P-gp (Homo sapiens, UniProt P08183)
Construct: expressed in transfected cells; host or cells: MDR1-MDCK (MDCK cells expressing MDR1)
Assay: P-gp substrate potential using MDR1-MDCK monolayers (bidirectional permeability +/- valspodar)
Format: in vitro ADME
Details: dog, MDCK-MDR1, pH 7.4, with valspodar 1 μM, MDR1-MDCK, 5 μM, A-to-B, + 1 μM Valspodar, 120 minutes
READOUT TYPE: recovery at 120 min, 5 μM (%)
# number only, unit % dropped from output

Q) Bench note: what recovery at 120 min, 5 μM did `CCN1CCN(Cc2ccc(Nc3ncc(F)c(-c4ccc5nn(C)c(C(C)C)c5c4)n3)nc2)CC1` show?
A) 19

====

Test: Brain concentration and brain/plasma ratio in mouse after 10 mg/kg p.o.
Type: in vivo
Conditions: plasma, po, 10 mg/kg, PO 10 mg/kg, 2.00 h, individual animal R2, read-out: Plasma Concentration, R2 + 3n
READOUT TYPE: concentration at 2 h (ng/mL)

A = CCN1CCN(Cc2ccc(Nc3ncc(F)c(-c4cc(F)c5nc(C)n(C(C)C)c5c4)n3)nc2)CC1 [abemaciclib, reference compound]
B = CCN1CCN(Cc2ccc(Nc3ncc(F)c(-c4ccc5nn(C)c(C(C)C)c5c4)n3)nc2)CC1
Q) Parameter check: reported concentration at 2 h is higher for which label, A or B ? Identify your pick by its label.
A) A

====

Experiment: Brain concentration and brain/plasma ratio in mouse after 10 mg/kg p.o.
Format: in vivo
Settings: brain, po, 10 mg/kg, PO 10 mg/kg, 24.0 h, individual animal R3, read-out: Brain Concentration, R3 + 3n
READOUT TYPE: concentration at 24 h (ng/g)

A = CCN1CCN(Cc2ccc(Nc3ncc(F)c(-c4ccc5nn(C)c(C(C)C)c5c4)n3)nc2)CC1
B = CCN1CCN(Cc2ccc(Nc3ncc(F)c(-c4cc(F)c5nc(C)n(C(C)C)c5c4)n3)nc2)CC1 [abemaciclib, reference compound]
Q) Which value of concentration at 24 h is numerically greater: that of A or that of B ? State your choice using its label.
A) A
(A: 15.8 ng/g, B: 10.6 ng/g)

====

Test system: MDR1 (P-gp)
Assay: in vitro
Conditions: dog, MDCK-MDR1
READOUT TYPE: Papp B→A (×10⁻⁶ cm/s)
Please state the figure in ×10⁻⁶ cm/s; there is no need to write the unit.

Q) Record request: Papp B→A value, item `C[C@H]1O[C@@H](O[C@H]2[C@@H](O)C[C@H](O[C@H]3[C@@H](O)C[C@H](O[C@H]4CC[C@@]5(C)[C@H](CC[C@@H]6[C@@H]5C[C@@H](O)[C@]5(C)[C@@H](C7=CC(=O)OC7)CC[C@]65O)C4)O[C@@H]3C)O[C@@H]2C)C[C@H](O)[C@@H]1O`
A) 13.9

====

Assay: Brain concentration and brain/plasma ratio in mouse after 10 mg/kg p.o.
Type: in vivo
Settings: plasma, po, 10 mg/kg, PO 10 mg/kg, 8.00 h, individual animal R2, read-out: Plasma Concentration, R2 + 3n
READOUT TYPE: concentration at 8 h (ng/mL)

1 = CCN1CCN(Cc2ccc(Nc3ncc(F)c(-c4ccc5nn(C)c(C(C)C)c5c4)n3)nc2)CC1
2 = CCN1CCN(Cc2ccc(Nc3ncc(F)c(-c4cc(F)c5nc(C)n(C(C)C)c5c4)n3)nc2)CC1 [abemaciclib, reference compound]
Q) For 1 and 2 , which recorded concentration at 8 h is lower? Choose, then provide that item's label.
A) 2
(2: 707 ng/mL, 1: 1030 ng/mL)

====

Test: Brain concentration and brain/plasma ratio in mouse after 10 mg/kg p.o.
Assay type: in vivo
Conditions: brain, po, 10 mg/kg, PO 10 mg/kg, 4.00 h, individual animal R3, read-out: Brain Concentration, R3 + 3n
READOUT TYPE: concentration at 4 h (ng/g)

1 = CCN1CCN(Cc2ccc(Nc3ncc(F)c(-c4ccc5nn(C)c(C(C)C)c5c4)n3)nc2)CC1
2 = CCN1CCN(Cc2ccc(Nc3ncc(F)c(-c4cc(F)c5nc(C)n(C(C)C)c5c4)n3)nc2)CC1 [abemaciclib, reference compound]
Q) Hi team, can someone confirm which has the larger concentration at 4 h: 1 or 2 ? Thanks. Kindly give the label for the entry you pick.
A) 1

====

Molecular target: P-gp (Homo sapiens)
Construct: expressed in transfected cells; host or cells: MDR1-MDCK (MDCK cells expressing MDR1)
Test: P-gp substrate potential using MDR1-MDCK monolayers (bidirectional permeability +/- valspodar)
Type: in vitro ADME
Conditions: dog, MDCK-MDR1, pH 7.4, MDR1-MDCK, 5 μM, B-to-A, without valspodar, replicate R2; read-out: Papp R2
READOUT TYPE: Papp B→A at 120 min, 5 μM (×10⁻⁶ cm/s)
# output: bare number, implied unit ×10⁻⁶ cm/s

Q) Bench note: what Papp B→A at 120 min, 5 μM did CCN1CCN(Cc2ccc(Nc3ncc(F)c(-c4ccc5nn(C)c(C(C)C)c5c4)n3)nc2)CC1 [Compound 1] show?
A) 8.4
